Please respond with reported self-cleavage for every item in the list.
B1: CPEB3 Ribozyme (parent)
chain: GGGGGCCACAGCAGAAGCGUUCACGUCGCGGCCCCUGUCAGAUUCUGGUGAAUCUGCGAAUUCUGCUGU

Variants of: B1
Test: self-cleavage, relative activity (ratio to wild type); higher = more cleavage; co-transcriptional

I would be grateful if you could share the reported self-cleavage for GGGGGCCACAGCAGAAGCGUUCACGUCGCGUCCCCUGUCAGAUUCUGGUGAAUCUGCGAAUUCUGCUGG .
1.02

Query GGGGGCCGCAGCGGAAGCGUUCACGUCGCGGCCCCUGUCAGAUUCUGGUGAAUCUGCGAAUUCUGCUGU next
0.192

Query GGGGGCGACAGCAGAAGCGUUCACGGCGCGGCCCCUGUCAGAUUCUGGUGAAUCUGCGAAUUCUGCUGU next
0.233

Query GGGGGCCACAGCAGAAGCGUUCACGUCGCGGCCCCGGUCAGAUUCUGGUGAAUAUGCGAAUUCUGCUGU next
0.186

Query GGGGGCCACAGCAGAAGCGUUCACGUCGCGGCCCCUGUCAGAUUCAGGUGAAUCUGCGAAAUCUGCUGU next
0.982

Query GGGGGCCACAGCAGAAGUGUUCACGUCGCGGCCCCUGUCAGAUUCUGGUGAAUCUGCGUAUUCUGCUGU next
0.445

Query GGGGGCCACAGCAGAAGCGUUCUCGUCGCGGCCCCUGUCAGAUUGUGGUGAAUCUGCGAAUUCUGCUGU next
1

Query GGGCGCCACAGCAGAAGCGUUCACGUCGCGGCCCCUGUCAGAUUCUGGUGAAUCUGCGAGUUCUGCUGU next
0.235

Query GGGGGCCACAGCAGAAGCGUUCACGUCGCGGCCCCUGUCAGAUUCUGGUGUAUCUGCGAACUCUGCUGU next
0.808

Query GGGGGCCACAGCAGAAGCGUUAACGUCGCGGCCCCUGUCAGAUUCUGGUGAAUCUGCGAAUACUGCUGU next
0.148

Query GGGGGCCACAGCAGAAGCGUUCUCGUCGCGGCCCCUAUCAGAUUCUGGUGAAUCUGCGAAUUCUGCUGU next
0.384

Query GGGGGCCACAGCAGAAGCGUUCACGUCGCGGCCCCUGUCAGAUUCUGGUGAAUCCGCGCAUUCUGCUGU next
0.464

Query UGGGGCCACAGCAGAAGCUUUCACGUCGCGGCCCCUGUCAGAUUCUGGUGAAUCUGCGAAUUCUGCUGU next
0.0505

Query GGGGGUCACAGCAGAAGCGUUCACGUCGCGGCCCCUGUCAGAUUCUGGUGAGUCUGCGAAUUCUGCUGU next
0.997

Query GGGGGCCACAGCAGACGCGUUCACGUCGCGGCCCCUGUCAGAUUCCGGUGAAUCUGCGAAUUCUGCUGU next
0.293

Query CGGGGCCACUGCAGAAGCGUUCACGUCGCGGCCCCUGUCAGAUUCUGGUGAAUCUGCGAAUUCUGCUGU next
0.209

Query GAGGGCCACAGCAGAAGCGUUCACGUCGCGGCCCCUGUCAGAUUAUGGUGAAUCUGCGAAUUCUGCUGU next
0.132

Query GGGGGCCACAGCAGAAGCGUUCACGUCGCGGCCCCUGUCAGAUUCUGGUGAAUCUGCGGAAUCUGCUGU next
0.916

Query GAGGGCCACAGCAGAAGCGUUAACGUCGCGGCCCCUGUCAGAUUCUGGUGAAUCUGCGAAUUCUGCUGU next
0.0696

Query GGGGGCCACAGCAGAAGCGUUCACGUCGCGGCCCCUCUCAGAUUCUGGUGAAUCUGCGAAUUCUGCUGC next
0.428

Query GGGGGCCAGAGCAGAAGCGUUCACGUCGCGGCCCCUGUCAGAUUCUGGGGAAUCUGCGAAUUCUGCUGU next
0.954

Query GGGGGCCACAGCAGAAGCGUUCACGUCGCGGCCCCUGUCAGAUUCUGAUGAAUCAGCGAAUUCUGCUGU next
0.99

Query GGGGGCCACAGCAGAAGCGUUCACGUCGCGCCUCCUGUCAGAUUCUGGUGAAUCUGCGAAUUCUGCUGU next
0.45

Query GGGGGCCACAGCAGAAGUGUUCACGUCGCGGCCCCUGUCAGAUUCUGGUGAAGCUGCGAAUUCUGCUGU next
0.633

Query GGGGGCCACAGCAGAAGCGUUCACGUCGCGGCCCCUGUCAGAUUCUGGUGAAUCUGUGAAUUCUGUUGU next
0.42

Query GGGGGCCACAGCAGAAGCGGUCACGUCGCGGCCCCUGUCAGAGUCUGGUGAAUCUGCGAAUUCUGCUGU next
0.153

Query GGGGGCCACAGCAGAAGCGCUCACGUCGCGGCCCCUGUCAGAUUCUGGUGUAUCUGCGAAUUCUGCUGU next
0.172

Query GGGGGCCACAGCAGAAGCGUUCACAUCGCGGCCCCUGUCAGAUUCUUGUGAAUCUGCGAAUUCUGCUGU next
0.198

Query GGGGGCCACAGCAGCACCGUUCACGUCGCGGCCCCUGUCAGAUUCUGGUGAAUCUGCGAAUUCUGCUGU next
0.131

Query UGGGGCCACAGCAGAAGCGUUCAAGUCGCGGCCCCUGUCAGAUUCUGGUGAAUCUGCGAAUUCUGCUGU next
0.0939

Query GGGGGCCACAGCAGAAGCGUUCACGUCGAGGCCCCUGUCAGAUUCUGGUGAAUCUGCGAACUCUGCUGU next
0.374

Query CGGGGCCACAGCAGAAGCGUUCACGUCGCGGCCCCUGUCAGAUUCUGGUGAAUCUGCGAUUUCUGCUGU next
0.179

Query GGGCGCCACAGCAGAAGCGUUCACGUCGCGGCCCCUGUGAGAUUCUGGUGAAUCUGCGAAUUCUGCUGU next
0.298

Query GGGGGCCACAGCAGAAGUGUUCACGUCGCGGCCCCUGUCAGAUUCUGGUGAAUCUGCGAAUUCUUCUGU next
0.245
